Assay: Dissociation constant, pKa of the compound at pH 3 to 12 by UV spectroscopy
Type: physicochemical
readout_name: pKa

- O=[N+]([O-])c1c[nH]cn1: 9.2
- N=C(N)Oc1ccc(Oc2ccc(OC(=N)N)cc2)cc1: 10.7
- CON1CCN/C1=N/c1ccc(CCc2ccc(/N=C3\NCCN3OC)cc2)cc1: 8.01
- CON1CCN/C1=N\c1ccc(NC(=O)Nc2ccc(/N=C3\NCCN3OC)cc2)cc1: 7.95
- CCON1CCN/C1=N/c1ccc(C(=O)Nc2ccc(/N=C3\NCCN3OCC)cc2)cc1: 7.34
- Clc1cccc(Cl)c1N=C1NCCN1: 8.14
- CCON1CCN/C1=N/c1ccc(CCc2ccc(/N=C3\NCCN3OCC)cc2)cc1: 8.01
- c1cc(NC2=NCCN2)ccc1CCc1ccc(NC2=NCCN2)cc1: 10.7
- O=C(Nc1ccc(NC2=NCCN2)cc1)Nc1ccc(NC2=NCCN2)cc1: 10.3
- Cc1nc2ccccc2[nH]1: 6.22
- CCON1CCN/C1=N\c1ccc(NC(=O)Nc2ccc(/N=C3\NCCN3OCC)cc2)cc1: 8.27
- O=C(Nc1ccc(/N=C2\NCCN2O)cc1)c1ccc(/N=C2/NCCN2O)cc1: 7.43
- CON1CCN/C1=N/c1ccc(C(=O)Nc2ccc(/N=C3\NCCN3OC)cc2)cc1: 7.27
- ON1CCN/C1=N/c1ccc(CCc2ccc(/N=C3\NCCN3O)cc2)cc1: 7.97
- O=[N+]([O-])c1ccc(O)cc1: 6.87
